- experimental protocol: in vitro
- assay context: human, Caco-2
The entries below come with measured Papp values attached.
readout type: Papp (×10⁻⁶ cm/s)

>>> quantitative_readout("Cc1ncc2n1-c1ccc(Cl)cc1C(c1ccccc1F)=NC2")
47.5
>>> quantitative_readout("O=C1Nc2ccc(Cl)cc2C(c2ccccc2Cl)=NC1O (centres unmarked)")
67.2

---

- experimental protocol: in vitro
- assay context: human, hepatocytes, Scaled HH CLint,u
readout type: CLint scaled (L/h/kg)

>>> quantitative_readout("Cc1ncc2n1-c1ccc(Cl)cc1C(c1ccccc1F)=NC2")
3.77

---

- experimental protocol: Intrinsic permeability in Caco-2 cells with efflux inhibited
- assay context: human, Caco-2
readout type: Papp at 2 h, 10 µM (×10⁻⁶ cm/s)

>>> quantitative_readout("C=CCn1c(=O)c2cnc(Nc3ccc(N4CCN(C)CC4)cc3)nc2n1-c1cccc(C(C)(C)O)n1")
12.7
>>> quantitative_readout("O=C(c1ccc(F)cc1)C1CCN(CCn2c(=O)[nH]c3ccccc3c2=O)CC1")
32.7
>>> quantitative_readout("CCN(C(=O)c1cc(F)ccc1Oc1cncnc1N1CC2(CCN(C[C@H]3CC[C@H](NS(=O)(=O)CC)CC3)CC2)C1)C(C)C")
1.65
>>> quantitative_readout("C=CCN1CC[C@]23c4c5ccc(O)c4O[C@H]2C(=O)CC[C@@]3(O)[C@H]1C5")
11.9

Origin of the recorded values: paper PMC12592420
